- TARGET_OR_SYSTEM: T1, melanocortin-1 receptor (MC1-R) of B-16 mouse melanoma cells (mouse, UniProt Q01727 1-315)
- T1 construct: whole, on cells; membranes prepared from the cells were used; also called Melanocortin Receptor 1
- T1 sequence (Q01727 whole entry): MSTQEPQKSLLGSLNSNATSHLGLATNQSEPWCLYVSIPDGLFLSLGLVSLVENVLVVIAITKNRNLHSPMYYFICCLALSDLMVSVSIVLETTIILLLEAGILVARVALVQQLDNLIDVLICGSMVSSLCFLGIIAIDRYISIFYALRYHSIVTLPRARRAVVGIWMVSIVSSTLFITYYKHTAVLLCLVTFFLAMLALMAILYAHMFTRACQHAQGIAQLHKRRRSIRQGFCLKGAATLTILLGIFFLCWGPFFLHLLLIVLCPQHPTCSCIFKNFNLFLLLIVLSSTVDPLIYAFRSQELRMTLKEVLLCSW
- ASSAY_INFO: 125I-NDP-α-MSH competition, B-16 membranes
Square brackets hold non-standard residues; d marks the D form. Ends that are not written are not given here. Nle = CCCC[C@H](N)C(=O)O
QUANTITY: % Inhibition at 1 µM (%)
// note: answer is a bare numeric in %

As a guide, the following entries are already answered.
YV[Nle]GH[dF]RWDCF-NH2 (also: oxorhenium(V) N3S1 chelate: C10 SG + backbone N of W8, D9, C10, bridge at 10 via Re(V)=O, other end not in the chain) [metallopeptide 5-2]    95
YVXGHFRWDRF (Nle 3 (X in letters); D-Phe 6; C-terminal amide, not complexed to Re) [[Nle3, D-Phe6]-γ-MSH parent polypeptide Tyr-Val-Nle-Gly-His-D-Phe-Arg-Trp-Asp-Arg-Phe-NH2]    99

# context switch: different binder, same % Inhibition at 1 µM
Data request: I am curious: what % Inhibition at 1 µM value has been reported for YV[Nle]GH[dF]RCDRF-NH2 (also: oxorhenium(V) N3S1 chelate: C8 SG + backbone N of F6, R7, C8, bridge at 8 via Re(V)=O, other end not in the chain) [metallopeptide 5-4] ?
Data returned: 86
